Biological target: Albumax (Bos taurus, UniProt P02769)
Sequence (P02769 25-607): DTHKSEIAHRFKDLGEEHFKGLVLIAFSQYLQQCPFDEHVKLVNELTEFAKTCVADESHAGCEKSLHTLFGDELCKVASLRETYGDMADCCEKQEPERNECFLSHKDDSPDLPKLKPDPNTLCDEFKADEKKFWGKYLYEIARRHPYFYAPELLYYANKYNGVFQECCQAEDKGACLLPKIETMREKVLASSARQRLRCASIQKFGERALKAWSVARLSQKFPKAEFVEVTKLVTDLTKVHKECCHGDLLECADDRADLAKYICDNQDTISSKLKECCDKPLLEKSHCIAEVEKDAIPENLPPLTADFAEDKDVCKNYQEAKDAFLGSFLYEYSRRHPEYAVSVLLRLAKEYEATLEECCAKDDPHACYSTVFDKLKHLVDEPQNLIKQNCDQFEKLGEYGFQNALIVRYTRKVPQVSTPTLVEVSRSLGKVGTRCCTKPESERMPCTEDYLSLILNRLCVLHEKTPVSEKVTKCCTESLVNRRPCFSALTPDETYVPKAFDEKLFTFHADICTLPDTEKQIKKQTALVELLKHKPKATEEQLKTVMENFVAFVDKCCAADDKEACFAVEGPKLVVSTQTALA
Test: in vitro
Type: in vitro ADME
Details: bovine, isolated protein; read-out: Albumax binding % bound (converted)
METRIC NAME: fraction unbound
// keep it numeric: no unit symbol after the value

[in] Bench note: what fraction unbound did Cc1cc(N(C)C)nc(Nc2ccc(NC(=O)Nc3ccc(F)cc3)cc2)n1 [Compound 51] show?
[out] 0.016

[in] # get_value(readout='fraction unbound', item= O=C(CCC1CCCCC1)Nc1ccc(Nc2nc(N3CCNCC3)c3ccccc3n2)cc1 [Compound 55] )
[out] 0.002

[in] Quick check: fraction unbound of O=C(Nc1ccc(F)cc1)Nc1ccc(Nc2nc(N3CCNCC3)c3ccccc3n2)cc1 [Compound 56] ?
[out] 0.001
